I'd appreciate it if you could supply MIC values for the items below.
System: P. aeruginosa PA14
Assay: microbe, parasite or virus in culture
Type: cell-based
Conditions: Pseudomonas aeruginosa; Table 1; P. aeruginosa PA14; broth microdilution; read-out: MIC
Number in µg/mL, nothing else.

Recorded MIC for C[C@H]1c2cccc(O)c2C(=O)C2=C(O)[C@]3(O)C(=O)C(C(N)=O)=C(O)[C@@H](N(C)C)[C@@H]3[C@@H](O)[C@@H]21 [DOX, doxycycline] on P. aeruginosa PA14 was 16

Recorded MIC for C[C@@H](O)[C@H]1C(=O)N2C(C(=O)O)=C(S[C@@H]3CN[C@H](C(=O)N(C)C)C3)[C@H](C)[C@H]12 [MEM, Meropenem] on P. aeruginosa PA14 was 0.5

Recorded MIC for C[C@H]1[C@H](NC(=O)/C(=N\OC(C)(C)C(=O)O)c2csc(N)n2)C(=O)N1S(=O)(=O)O [ATM, Aztreonam] on P. aeruginosa PA14 was 4

----------
I'd appreciate it if you could supply MIC values for the items below.
Tested on: E. faecalis JH2-2
Test: microbe, parasite or virus in culture
Assay type: cell-based
Details: Enterococcus faecalis, JH22; Table 1; E. faecalis JH2-2; broth microdilution; read-out: MIC
Number in µg/mL, nothing else.

According to the records, this compound O=C(O)c1cn(C2CC2)c2cc(N3CCNCC3)c(F)cc2c1=O [CIP, ciprofloxacin] displays MIC of 0.5

According to the records, this compound CC[C@H]1OC(=O)[C@H](C)[C@@H](O[C@H]2C[C@@](C)(OC)[C@@H](O)[C@H](C)O2)[C@H](C)[C@@H](O[C@@H]2O[C@H](C)C[C@H](N(C)C)[C@H]2O)[C@](C)(O)C[C@@H](C)C(=O)[C@H](C)[C@@H](O)[C@]1(C)O [ERY, Erythromycin] displays MIC of 0.25

According to the records, this compound CC(=O)NC[C@H]1CN(c2ccc(N3CCOCC3)c(F)c2)C(=O)O1 [LZD, linezolid] displays MIC of 0.5

----------
Test system: P. aeruginosa PA14
Experiment: microbe, parasite or virus in culture
Type: cell-based
Details: Pseudomonas aeruginosa; Table 1; P. aeruginosa PA14; broth microdilution; read-out: MIC
outcome_measure: MIC

According to the records, this molecule CC1(C)S[C@@H]2[C@H](NC(=O)[C@H](N)c3ccccc3)C(=O)N2[C@H]1C(=O)O [AMP, Ampicillin] displays MIC of > 64 µg/mL

According to the records, this molecule CCC[C@@H]1C[C@@H](C(=O)N[C@@H]([C@H]2O[C@H](SC)[C@H](O)[C@@H](O)[C@H]2O)[C@H](C)Cl)N(C)C1 [CLI, clindamycin] displays MIC of > 64 µg/mL

According to the records, this molecule CNC(C)C1CCC(N)C(OC2C(N)CC(N)C(OC3OCC(C)(O)C(NC)C3O)C2O)O1 (stereo not shown) [GEN, gentamicin] displays MIC of < 0.06 µg/mL

According to the records, this molecule CO[C@@]1(NC(=O)Cc2cccs2)C(=O)N2C(C(=O)O)=C(COC(N)=O)CS[C@@H]21 [FOX, Cefoxitin] displays MIC of > 64 µg/mL
